This collection of values is drawn from patent US20210147507A1.

- Test system: chimeric Caspase-9 polypeptide
- Sequence (P62942 2-108 F37V limits assumed): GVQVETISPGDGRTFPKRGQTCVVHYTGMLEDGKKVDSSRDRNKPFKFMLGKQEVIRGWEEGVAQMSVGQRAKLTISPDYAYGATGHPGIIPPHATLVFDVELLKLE
- procedure.summary: Caspase-9 mutant classes and basal activity (Table 5)
- Assay type: cell-based
- condition.label: Caspase-9 mutant class; basal (ligand-independent) signaling compared with unmodified chimeric Caspase-9
quantity.kind: Basal Activity

molecule="N405Q (protein) GFGDVGALESLRGNADLAYILSMEPCGHCLIINNVNFCRESGLRTRTGSNIDCEKLRRRFSSLHFMVEVKGDLTAKKMVLALLELARQDHGALDCCVVVILSHGCQASHLQFPGAVYGTDGCPVSVEKIVNIFNGTSCPSLGGKPKLFFIQACGGEQKDHGFEVASTSPEDESPGSNPEPDATPFQEGLRTFDQLDAISSLPTPSDIFVSYSTFPGFVSWRDPKSGSWYVETLDDIFEQWAHSEDLQSLLLRVANAVSVKGIYKQMPGCFQFLRKKLFFKTSASRA" reported_measurement=Decreased
molecule="F404T (protein) GFGDVGALESLRGNADLAYILSMEPCGHCLIINNVNFCRESGLRTRTGSNIDCEKLRRRFSSLHFMVEVKGDLTAKKMVLALLELARQDHGALDCCVVVILSHGCQASHLQFPGAVYGTDGCPVSVEKIVNIFNGTSCPSLGGKPKLFFIQACGGEQKDHGFEVASTSPEDESPGSNPEPDATPFQEGLRTFDQLDAISSLPTPSDIFVSYSTFPGFVSWRDPKSGSWYVETLDDIFEQWAHSEDLQSLLLRVANAVSVKGIYKQMPGCTNFLRKKLFFKTSASRA" reported_measurement=Decreased
